The values you see were collected from patent US5665719A.

TARGET: uterine OT receptors (Rattus norvegicus, UniProt P70536)
Construct: from tissue; host or cells: uterus of diethylstilbestrol dipropionate (DES)-treated rats, crude membrane preparation
Sequence (P70536 whole entry): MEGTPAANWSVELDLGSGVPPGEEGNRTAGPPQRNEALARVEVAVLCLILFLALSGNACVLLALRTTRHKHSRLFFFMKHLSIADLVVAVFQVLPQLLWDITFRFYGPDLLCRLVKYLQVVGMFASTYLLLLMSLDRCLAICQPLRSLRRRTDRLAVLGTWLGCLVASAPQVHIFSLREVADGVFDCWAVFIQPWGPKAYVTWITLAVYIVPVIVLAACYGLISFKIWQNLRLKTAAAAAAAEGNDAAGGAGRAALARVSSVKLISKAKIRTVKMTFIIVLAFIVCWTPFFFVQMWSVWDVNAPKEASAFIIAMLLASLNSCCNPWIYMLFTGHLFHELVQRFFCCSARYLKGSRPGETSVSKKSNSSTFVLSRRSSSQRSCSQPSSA
MEASUREMENT DESCRIPTION: [3H]Oxytocin (OT) radioligand binding to uterine OT receptors, crude uterine membranes from DES-treated rats
MEASUREMENT PARAMETERS: inhibition at 10,000 nM; 1 nM [3H]OT, 60 minutes, 22° C., pH 7.4; read-out: Result For [3H]OT (% inhib. at 10,000 nM)
Description: Competition studies were conducted at equilibrium (60 minutes; 22° C.) using 1 nM[^3 H]OT in the following assay buffer: 50 mM Tris-HCl, 5 mM MgCl2, and 0.1% BSA, pH 7.4. Nonspecific binding (10% of the total binding) was determined using 1 μM unlabeled OT and the binding reaction was terminated by filtration through glass fiber filters using a cell harvester (model 7019, Skatron, Inc., Sterling, Va.). […]
Outcome: TRUE for inhibition at 10 µM of at least 70%; FALSE for anything lower.

MOLECULE	GROUP
COc1ccc(C(=O)N2CCC(N3C(=O)OC(C)(C)c4ccccc43)CC2)c(OC)c1	FALSE

Confirm if inhibition at 10 µM reported for the molecule COc1ccc(C(=O)N2CCC(N3C(=O)N(C)Cc4ccccc43)CC2)c(OC)c1 is 70% or above.
FALSE

For this molecule, is measured inhibition at 10 µM 70% or higher? O=C(c1ccc(OCC2CCCNC2)cc1)N1CCC(N2C(=O)OCc3ccccc32)CC1 (centres unmarked)
TRUE

Quick check, inhibition at 10 µM >= 70%? O=C(c1ccccn1)N1CCC(N2C(=O)OCc3ccccc32)CC1
FALSE

Given COc1ccc(C(=O)N2CC(N3C(=O)OCc4ccccc43)C2)c(OC)c1 , state whether its inhibition at 10 µM is at least 70%.
FALSE

# bool: inhibition at 10 µM of O=C(c1cc2ccccc2[nH]1)N1CCC(N2C(=O)OCc3ccccc32)CC1 >= 70%
TRUE

State whether the measured inhibition at 10 µM reaches 70%, counting equality as reaching it, for COc1cc(OC)c(C(=O)N2CCC(N3C(=O)OCc4ccccc43)CC2)c(OC)c1
FALSE

====

TARGET: uterine OT receptors (Rattus norvegicus, UniProt P70536)
Construct: from tissue; host or cells: uterus of diethylstilbestrol dipropionate (DES)-treated rats, crude membrane preparation
MEASUREMENT DESCRIPTION: [3H]Oxytocin (OT) radioligand binding to uterine OT receptors, crude uterine membranes from DES-treated rats
IC50 values, listed per item
# unit: µM | format: bare number

Worked cases, IC50 given:
LINE NOTATION	IC50 [µM]
COc1cc(OC2CCN(S(=O)(=O)CCCN(C)C3CC3)CC2)ccc1C(=O)N1CCC(N2C(=O)OCc3ccccc32)CC1	0.025
COc1cc(OCCCN2C(=O)CN(C)C2=O)ccc1C(=O)N1CCC(N2C(=O)OCc3ccccc32)CC1	0.26

Form field - read-out: IC50; system: uterine OT receptors (Rattus norvegicus, UniProt P70536); submitted item: COc1cc(OCCCNC(=O)C2CCNCC2)ccc1C(=O)N1CCC(N2C(=O)OCc3ccccc32)CC1
0.074

Given the entry O=C(c1ccc(OC2CCNCC2)cc1Cl)N1CCC(N2C(=O)OCc3ccccc32)CC1 , what IC50 was observed with uterine OT receptors (Rattus norvegicus, UniProt P70536)?
4.3

Reported IC50 for uterine OT receptors (Rattus norvegicus, UniProt P70536), given O=C(/C=C/c1ccccc1)N1CCC(N2C(=O)OCc3ccccc32)CC1 ?
6.2

Give recorded IC50 with uterine OT receptors (Rattus norvegicus, UniProt P70536) for the following molecule: COc1cc(OC2CCN(C(=O)CCCN)CC2)ccc1C(=O)N1CCC(N2C(=O)OCc3ccccc32)CC1
0.069

Give uterine OT receptors (Rattus norvegicus, UniProt P70536) IC50 for CCOC(=O)CN1CCC(Oc2ccc(C(=O)N3CCC(N4C(=O)OCc5ccccc54)CC3)c(OC)c2)CC1
0.34

Request body: readout IC50, system uterine OT receptors (Rattus norvegicus, UniProt P70536), query COc1cc(OCCCN)ccc1C(=O)N1CCC(N2C(=O)OCc3ccccc32)CC1 . Return the value.
0.41
